The reported numbers originate from paper PMC9975673.

target: ROS1 G2032R (Homo sapiens, UniProt P08922, G2032R); type: biochemical
measure.name: Potency improvement of NVL-520 over the named TKI, ROS1 G2032R (fold)

(P) C[C@@H](N)COc1ccc(-c2cnc3ccc(N[C@H](C)c4cccc(F)c4)nn23)cc1 [Taletrectinib]
(Q) C[C@H]1CNC(=O)c2cnn3ccc(nc23)N[C@H](C)c2cc(F)ccc2O1 [Repotrectinib]
[Q] Pick one: P or Q . Which has the bigger Potency improvement of NVL-520 over the named TKI, ROS1 G2032R number? Response format: the label of the selected entry.
[A] P

====

test system: 6 ROS1 G2032R fusion cell lines; test: cells; assay type: cell-based; settings: read-out: Average potency (IC50) across 6 ROS1 G2032R fusion cell lines; geometric mean of IC50s across cell lines
Item-by-item account of pIC50
Expect pIC50 as a plain number equal to -log10 of the molar concentration.

[Q] Give the value of pIC50 reported for the following: `CCn1ncc2c1-c1cnc(N)c(c1)O[C@H](C)c1cc(F)ccc1-c1nn(C)nc1C2`
[A] 8.80

[Q] Give the value of pIC50 reported for the following: `C[C@H]1Oc2cc(cnc2N)-c2c(nn(C)c2C#N)CN(C)C(=O)c2ccc(F)cc21`
[A] 7.01
